Cited source: patent US11701333B2

# Test system: S. aureus
# Protocol Summary: drop test activity screening; further: key: Y = antibacterial activity; N = No antibacterial activity
# Format: cell-based
Experimental Readout: drop test activity S. aureus

// worked examples, drop test activity S. aureus included
Cc1ccc2nc(NC(=O)NCS(=O)(=O)O)sc2c1: N
O=C(NCS(=O)(=O)O)Nc1ccc(C(F)(F)F)cc1 [Compound 33]: Y
CCCCNC(=O)NCS(=O)(=O)O [Compound 46, reference compound]: N
O=C(NCS(=O)(=O)O)Nc1cc(C(F)(F)F)cc(C(F)(F)F)c1: Y
O=S(=O)(O)CNC(=S)Nc1ccc(C(F)(F)F)cc1 [Compound 2]: Y
CCCCNC(=O)NCCCS(=O)(=O)O [Compound 50, reference compound]: N

Incoming: Reported drop test activity S. aureus, compound O=C(NCS(=O)(=O)O)Nc1ccc(C(F)(F)F)cc1 [Compound 31] : ____
Outgoing: Y

Incoming: Reported drop test activity S. aureus, compound O=S(=O)(O)CNC(=S)Nc1ccc(C(F)(F)F)cc1 [Compound 63] : ____
Outgoing: N

Incoming: Reported drop test activity S. aureus, compound Cc1ccc2sc(-c3ccc(NC(=O)NCS(=O)(=O)O)cc3)nc2c1 : ____
Outgoing: Y

* * *

# System: S. aureus
# Protocol Summary: drop test activity screening; further: key: Y = antibacterial activity; N = No antibacterial activity
# Format: cell-based
Experimental Readout: drop test activity S. aureus

O=C(NCCCS(=O)(=O)O)Nc1ccc(C(F)(F)F)cc1: N
O=C(NCS(=O)(=O)O)Nc1ccc(C(F)(F)F)cc1 [Compound 34]: Y
O=C(NCS(=O)(=O)O)Nc1ccc([N+](=O)[O-])cc1: Y
O=S(=O)(O)CNC(=S)Nc1cc(C(F)(F)F)cc(C(F)(F)F)c1: Y

Could you now look at the following compound, please?
Incoming: Reported drop test activity S. aureus, compound O=C(NCS(=O)(=O)O)Nc1c(F)c(F)c(F)c(F)c1F : ____
Outgoing: N

* * *

# Tested on: S. aureus
# Protocol Summary: Calculated MIC50 and MIC100 values
# Type: cell-based
# Condition Label: log phase
Let's look at some compounds and their measured MIC50 Staph Log.
Write the value in μg/mL as a bare number.

Incoming: Reported MIC50 Staph Log, compound O=C(NCS(=O)(=O)O)Nc1ccc(C(F)(F)F)cc1 [Compound 33] : ____
Outgoing: 0.45

Incoming: Reported MIC50 Staph Log, compound O=S(=O)(O)CNC(=S)Nc1ccc(C(F)(F)F)cc1 [Compound 2] : ____
Outgoing: 54.13

Incoming: Reported MIC50 Staph Log, compound O=C(NCS(=O)(=O)O)Nc1ccc(C(F)(F)F)cc1 [Compound 31] : ____
Outgoing: 21.6

Incoming: Reported MIC50 Staph Log, compound O=C(NCS(=O)(=O)O)Nc1ccc(C(F)(F)F)cc1 [Compound 1] : ____
Outgoing: 7.35

Incoming: Reported MIC50 Staph Log, compound O=C(NCS(=O)(=O)O)Nc1ccc(C(F)(F)F)cc1 [Compound 32] : ____
Outgoing: 19.14

Incoming: Reported MIC50 Staph Log, compound O=C(NCS(=O)(=O)O)Nc1ccc(C(F)(F)F)cc1 [Compound 37] : ____
Outgoing: 29.08

* * *

# Tested on: S. aureus
# Protocol Summary: drop test activity screening; further: key: Y = antibacterial activity; N = No antibacterial activity
# Format: cell-based
Experimental Readout: drop test activity S. aureus

O=C(NCS(=O)(=O)O)Nc1ccccc1: N
O=S(=O)(O)CNC(=S)Nc1ccc(C(F)(F)F)cc1 [Compound 61]: N
CCCCNC(=S)NCCCS(=O)(=O)O [Compound 51, reference compound]: N
O=C(NCS(=O)(=O)O)Nc1ccc(Cc2ccc(NC(=O)NCS(=O)(=O)O)cc2)cc1: Y
O=C(NCS(=O)(=O)O)Nc1ccc(C(F)(F)F)cc1 [Compound 37]: Y

Could you now look at the following molecule, please?
Incoming: Reported drop test activity S. aureus, molecule O=C(NCS(=O)(=O)O)Nc1cccc2ccccc12 : ____
Outgoing: N

* * *

# Test system: S. aureus
# Protocol Summary: drop test activity screening; further: key: Y = antibacterial activity; N = No antibacterial activity
# Type: cell-based
Experimental Readout: drop test activity S. aureus

O=C(NCCS(=O)(=O)O)Nc1ccc(C(F)(F)F)cc1 [Compound 3]: N
CCCCNC(=S)NCS(=O)(=O)O [Compound 47, reference compound]: N
O=C(NCS(=O)(=O)O)Nc1ccc(C(F)(F)F)cc1 [Compound 1]: Y
O=S(=O)(O)CNC(=S)Nc1ccc(C(F)(F)F)cc1 [Compound 62]: N

Could you now look at the following compound, please?
Incoming: Record lookup: for S. aureus, what drop test activity S. aureus belongs to O=C(NCS(=O)(=O)[O-])Nc1ccc(C(F)(F)F)cc1.[Na+] [Compound 41] ?
Outgoing: Y

* * *

# System: S. aureus
# Protocol Summary: Calculated MIC50 and MIC100 values
# Type: cell-based
# Condition Label: log phase
Let's look at some compounds and their measured MIC50 Staph Log.
Write the value in μg/mL as a bare number.

O=C(NCS(=O)(=O)O)Nc1ccc(C(F)(F)F)cc1 [Compound 34]: 146.6192
O=C(NCS(=O)(=O)O)Nc1ccc2cc3ccccc3cc2c1: 330.0044
Cc1ccc2sc(-c3ccc(NC(=O)NCS(=O)(=O)O)cc3)nc2c1: 21.11

Could you now look at the following compound, please?
Incoming: Reported MIC50 Staph Log, compound O=C(NCS(=O)(=O)O)Nc1ccc(Cc2ccc(NC(=O)NCS(=O)(=O)O)cc2)cc1 : ____
Outgoing: 370.0761

* * *

# System: S. aureus
# Protocol Summary: drop test activity screening; further: key: Y = antibacterial activity; N = No antibacterial activity
# Type: cell-based
Experimental Readout: drop test activity S. aureus

CCCCNC(=O)NCCS(=O)(=O)O [Compound 48, reference compound]: N
O=C(NCS(=O)(=O)O)Nc1ccc2cc3ccccc3cc2c1: N
O=S(=O)(O)CCNC(=S)Nc1ccc(C(F)(F)F)cc1: Y
O=S(=O)(O)CCCNC(=S)Nc1ccc(C(F)(F)F)cc1: Y
